Values compiled from patent EP1073891B1.

- Tgt: estrogen receptor α (ERα) (Homo sapiens, UniProt P03372)
- Construct: The full length estrogen receptor was subcloned in frame into the EcoRI and XhoI sites of pJG4-5; expressed in transfected cells; host or cells: Saccharomyces cerevisiae EGY48
- Sequence (P03372 1-595): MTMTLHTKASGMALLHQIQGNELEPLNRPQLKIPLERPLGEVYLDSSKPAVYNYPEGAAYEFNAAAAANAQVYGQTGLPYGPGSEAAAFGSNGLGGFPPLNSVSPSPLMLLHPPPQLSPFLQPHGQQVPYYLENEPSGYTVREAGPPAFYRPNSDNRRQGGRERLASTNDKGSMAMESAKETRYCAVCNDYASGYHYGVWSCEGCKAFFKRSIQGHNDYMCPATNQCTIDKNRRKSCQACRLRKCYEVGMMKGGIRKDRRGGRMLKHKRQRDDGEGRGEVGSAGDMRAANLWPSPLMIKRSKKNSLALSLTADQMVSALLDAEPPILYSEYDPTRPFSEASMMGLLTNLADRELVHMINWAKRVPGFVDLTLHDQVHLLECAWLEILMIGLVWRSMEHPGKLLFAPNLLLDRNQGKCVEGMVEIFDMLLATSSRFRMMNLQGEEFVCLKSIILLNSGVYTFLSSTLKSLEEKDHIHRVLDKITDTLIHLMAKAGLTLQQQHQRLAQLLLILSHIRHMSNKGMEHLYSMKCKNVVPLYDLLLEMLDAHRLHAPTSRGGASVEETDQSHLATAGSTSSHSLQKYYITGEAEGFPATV
- Method description: LexA yeast two hybrid, β-galactosidase activity assay (Example 3)
- Assay type: cell-based
- Condition info: Tamoxifen Citrate
Observable: Peptide Interactions with ER Alpha, beta-galactosidase units, value (MOD/min/mg)

The following sequences have reported results that may help.
Chain sequence	Recorded value
SSLTSRDFGSWYASR [α II]	8933
SSWDMHQFFWEGVSR [α/β III]	600

A = SSPGSREWFKDMLSR [α/β V]
B = GHEPLTLLERLLMDDKQAV [Peptide F6]
Select one. Lower Peptide Interactions with ER Alpha, beta-galactosidase units, value: A or B Response format: the label of the selected entry.
A

----------
Examples of sequences with documented binding activity, ERβ and tamoxifen follow.
- Tgt: ERβ (Homo sapiens, UniProt Q92731)
- Sequence (Q92731 whole entry): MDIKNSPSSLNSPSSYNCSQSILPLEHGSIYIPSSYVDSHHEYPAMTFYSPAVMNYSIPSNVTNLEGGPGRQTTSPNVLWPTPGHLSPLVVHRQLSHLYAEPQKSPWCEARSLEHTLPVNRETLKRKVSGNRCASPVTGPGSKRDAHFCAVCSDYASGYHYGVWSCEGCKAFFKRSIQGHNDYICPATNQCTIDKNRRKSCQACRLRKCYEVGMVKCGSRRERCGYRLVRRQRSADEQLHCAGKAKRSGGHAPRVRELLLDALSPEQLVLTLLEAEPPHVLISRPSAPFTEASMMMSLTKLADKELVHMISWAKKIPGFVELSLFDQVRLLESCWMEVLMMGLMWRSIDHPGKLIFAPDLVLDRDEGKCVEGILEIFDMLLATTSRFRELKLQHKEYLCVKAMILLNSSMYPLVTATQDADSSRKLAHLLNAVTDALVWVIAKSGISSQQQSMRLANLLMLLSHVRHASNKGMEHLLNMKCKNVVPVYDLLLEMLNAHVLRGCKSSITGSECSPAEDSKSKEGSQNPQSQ
- Method description: Phage ELISA / fingerprint on ER immobilized on biotinylated ERE (Examples 2.3-2.5)
- Assay type: binding
- Set-up: purchased PanVera Corporation, Madison, WI; key: semiquantitative scale of 0 to 7+; 1+: semiquantitative scale of 0 to 7+; 2+: semiquantitative scale of 0 to 7+; 3+: semiquantitative scale of 0 to 7+; 4+: semiquantitative scale of 0 to 7+; 5+: semiquantitative scale of 0 to 7+; 6+: semiquantitative scale of 0 to 7+; semiquantitative scale of 0 to 7+
- Condition info: ERβ and tamoxifen (4-OH tamoxifen, 1 µM)

The following sequences have reported results that may help.
Chain sequence	binding activity, ERβ and tamoxifen
SSRCSSLLCEMLIQTKESR [Peptide 22E-β]	2+
SRPEGSSWLLHYLSR [Peptide 24E-β]	2+
SSWPGAEWFKEQLSR [Peptide 20b-β]	5+

May I ask what binding activity, ERβ and tamoxifen has been recorded for SSDLHRDCLGVWCLSR [Peptide 17t-β] ?
7+

May I ask what binding activity, ERβ and tamoxifen has been recorded for SSRGLLWDLLTKDSR [Peptide 1E-β] ?
3+

May I ask what binding activity, ERβ and tamoxifen has been recorded for SSLKCLLQSSPQKQPFCSR [Peptide 19E-β] ?
2+

May I ask what binding activity, ERβ and tamoxifen has been recorded for SSRLLCLLDAGQCSR [Peptide 16E-β] ?
2+

May I ask what binding activity, ERβ and tamoxifen has been recorded for SRPYCLGDVWCLDSR [Peptide 2t-β] ?
7+

May I ask what binding activity, ERβ and tamoxifen has been recorded for SREGLLMRLLIGDSR [Peptide 14E-β] ?
2+

May I ask what binding activity, ERβ and tamoxifen has been recorded for SSYEIPKWALQWLSR [Peptide 34E-β] ?
2+

May I ask what binding activity, ERβ and tamoxifen has been recorded for SRECVGGWCLAELSR [Peptide 18b-β] ?
7+

May I ask what binding activity, ERβ and tamoxifen has been recorded for SSIPPRSWWLSQLSR [Peptide 19b-β] ?
7+

May I ask what binding activity, ERβ and tamoxifen has been recorded for SRLHDLLLRDESPSR [Peptide 3E-β] ?
1+
